method: Selectivity index, ratio of IC50 for human ARPE19 cells to IC50 for human A2780cis cells
Assay type: toxicity
condition_parameters: ARPE19 cells versus A2780cis cells, read-out: Ratio IC50
Rule: label 1 for selectivity ratio not less than 1, label 0 for anything less.

**Query** Answer whether selectivity ratio of CC(C)CCc1sc(NC(=O)c2cc(NC(=O)c3cc(NC(=N)c4ccc(Cl)cc4)cn3C)cn2C)nc1C(=O)NCCN1CCOCC1 is greater than or equal to 1.
**Result** label 1

**Query** Cool, now CC(C)CCc1sc(NC(=O)c2cc(NC(=O)c3cc(NC(=N)c4ccc(F)cc4)cn3C)cn2C)nc1C(=O)NCCN1CCOCC1
**Result** label 1

**Query** Cool, now CC(C)CCc1sc(NC(=O)c2cc(NC(=O)c3cc(NC(=O)c4ccc(F)cc4)cn3C)cn2C)nc1C(=O)NCCCN(C)C
**Result** label 0

**Query** Cool, now COc1cc(/C=C/c2ccc(C(=O)Nc3cc(C(=O)Nc4nc(C(=O)NCCCN(C)C)c(CCC(C)C)s4)n(C)c3)cn2)ccc1F
**Result** label 1

**Query** Cool, now CC(C)CCc1sc(NC(=O)c2cc(NC(=O)c3ccc(/C=C/c4ccc(C(F)(F)F)cc4)cc3)cn2C)nc1C(=O)NCCCN(C)C
**Result** label 1

**Query** Cool, now CC(C)CCc1sc(NC(=O)c2cc(NC(=O)c3cc(NC(=O)c4ccc(C(F)(F)F)cc4)cn3C)cn2C)nc1C(=O)NCCCN(C)C
**Result** label 0

**Query** Cool, now CN(C)CCCNC(=O)c1cc(NC(=O)c2cc(NC(=O)c3cc(NC(=N)c4ccccc4)cn3C)cn2C)cn1C
**Result** label 1

**Query** Cool, now CC(C)CCc1sc(NC(=O)c2cc(NC(=O)c3ccc(/C=C/c4cccc(F)c4)cc3)cn2C)nc1C(=O)NCCCN(C)C
**Result** label 1

**Query** Cool, now CC(C)CCc1sc(NC(=O)c2cc(NC(=O)c3cc(NC(=N)c4cccc(F)c4)cn3C)cn2C)nc1C(=O)NCCCN(C)C
**Result** label 1

**Query** Cool, now CC(C)CCc1sc(NC(=O)c2cc(NC(=O)c3ccc(/C=C/c4cccc(C(F)(F)F)c4)nc3)cn2C)nc1C(=O)NCCCN(C)C
**Result** label 1

**Query** Cool, now CC(C)CCc1sc(NC(=O)c2cc(NC(=O)c3ccc(NC(=O)c4ccc(F)cc4)cc3)cn2C)nc1C(=O)NCCCN(C)C
**Result** label 1

**Query** Cool, now CC(C)CCc1sc(NC(=O)c2cc(NC(=O)c3cc(NC(=O)c4cccc(F)c4)cn3C)cn2C)nc1C(=O)NCCCN(C)C
**Result** label 0

**Query** Cool, now CC(C)CCc1sc(NC(=O)c2cc(NC(=O)c3cc(NC(=N)c4ccccc4)cn3C)cn2C)nc1C(=O)NCCCN(C)C
**Result** label 1

**Query** Cool, now CC(C)CCc1sc(NC(=O)c2cc(NC(=O)c3cc(NC(=N)c4cccc(Cl)c4)cn3C)cn2C)nc1C(=O)NCCN1CCOCC1
**Result** label 1

**Query** Cool, now COc1cccc(C(=N)Nc2cc(C(=O)Nc3cc(C(=O)Nc4nc(C(=O)NCCCN(C)C)c(CCC(C)C)s4)n(C)c3)n(C)c2)c1
**Result** label 1

**Query** Cool, now CC(C)CCc1sc(NC(=O)c2cc(NC(=O)c3ccc(/C=C/c4ccc(F)cc4)cc3)cn2C)nc1C(=O)NCCCN(C)C
**Result** label 1

**Query** Cool, now CC(C)CCc1sc(NC(=O)c2cc(NC(=O)c3ccc(/C=C/c4ccc(F)cc4)nc3)cn2C)nc1C(=O)NCCCN(C)C
**Result** label 1

**Query** Cool, now CC(=O)Nc1cc(C(=O)Nc2cc(C(=O)Nc3nc(C(=O)NCCCN(C)C)c(CCC(C)C)s3)n(C)c2)n(C)c1
**Result** label 1

**Query** Cool, now CC(=O)Nc1cc(C(=O)Nc2cc(C(=O)Nc3cc(C(=O)NCCCN(C)C)n(C)c3)n(C)c2)n(C)c1
**Result** label 1

**Query** Cool, now CC(C)CCc1sc(NC(=O)c2cc(NC(=O)c3cc(NC(=N)c4ccc(Cl)cc4)cn3C)cn2C)nc1C(=O)NCCCN(C)C
**Result** label 0

**Query** Cool, now CC(C)CCc1sc(NC(=O)c2cc(NC(=O)c3cc(NC(=N)c4cccc(F)c4)cn3C)cn2C)nc1C(=O)NCCN1CCOCC1
**Result** label 1

**Query** Cool, now CC(C)CCc1sc(NC(=O)c2cc(NC(=O)c3cc(NC(=N)c4ccc(F)cc4)cn3C)cn2C)nc1C(=O)NCCCN(C)C
**Result** label 1

**Query** Cool, now COc1cccc(C(=N)Nc2cc(C(=O)Nc3cc(C(=O)Nc4cc(C(=O)NCCCN(C)C)n(C)c4)n(C)c3)n(C)c2)c1
**Result** label 1

**Query** Cool, now CC(C)CCc1sc(NC(=O)c2cc(NC(=O)c3cc(NC(=N)c4cccc(Cl)c4)cn3C)cn2C)nc1C(=O)NCCCN(C)C
**Result** label 1
